Source: patent US11987588B2

Recorded measurements of IC50, one per entry
measured.on: Beta-3 Adrenergic Receptor (Homo sapiens (Human))
experiment.description: Homogeneous Time-Resolved Fluorescence (HTRF) cAMP antagonist assay, IC50 determination
condition.details: CHO-K1 cells stably expressing recombinant receptor, isoproterenol at EC90
measurement.name: IC50

>  <compound>
CN(C)CCNS(=O)(=O)c1cccc(OC[C@@H](O)CNC2COC3(CCN(S(=O)(=O)c4ccc5ccccc5c4)CC3)C2)c1 (stereo partly drawn)

>  <measurement.name>
IC50

>  <observed.result>
2150 nM

$$$$
>  <compound>
CN1CCOc2ncc(S(=O)(=O)N3CCC4(CC3)C[C@@H](NC[C@H](O)COc3cccc(S(=O)(=O)NC5CCCC5O)c3)CO4)cc21 (stereo in doubt)

>  <measurement.name>
IC50

>  <observed.result>
472 nM

$$$$
>  <compound>
CNS(=O)(=O)c1cccc(OC[C@@H](O)CNC2COC3(CCN(S(=O)(=O)c4ccccc4OC(F)(F)F)CC3)C2)c1 (stereo partly drawn)

>  <measurement.name>
IC50

>  <observed.result>
30.7 nM

$$$$

* * *

measured.on: Beta-3 Adrenergic Receptor (Homo sapiens (Human), UniProt P13945)
Sequence (P13945 whole entry, species assumed): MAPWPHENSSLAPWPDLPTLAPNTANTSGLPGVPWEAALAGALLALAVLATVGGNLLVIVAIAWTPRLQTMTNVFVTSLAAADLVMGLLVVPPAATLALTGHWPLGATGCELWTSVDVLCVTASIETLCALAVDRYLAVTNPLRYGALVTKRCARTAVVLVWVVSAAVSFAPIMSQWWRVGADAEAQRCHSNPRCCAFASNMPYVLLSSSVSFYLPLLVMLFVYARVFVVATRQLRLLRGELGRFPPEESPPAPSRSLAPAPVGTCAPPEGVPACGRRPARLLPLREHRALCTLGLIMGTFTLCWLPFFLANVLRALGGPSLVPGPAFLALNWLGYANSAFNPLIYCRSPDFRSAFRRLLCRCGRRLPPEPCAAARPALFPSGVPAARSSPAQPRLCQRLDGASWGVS
experiment.description: Homogeneous Time-Resolved Fluorescence (HTRF) cAMP antagonist assay, IC50 determination
Assay type: cell-based
condition.details: CHO-K1 cells stably expressing recombinant receptor, isoproterenol at EC90
pIC50: −log10 of the molar value.

>  <compound>
CONS(=O)(=O)c1cccc(OC[C@@H](O)CNC2COC3(CCN(S(=O)(=O)c4ccc5ccccc5c4)CC3)C2)c1 (some centres unmarked) [Compound 11]

>  <pIC50>
7.82

$$$$
>  <compound>
CNS(=O)(=O)c1cccc(OC[C@@H](O)CNC2COC3(CCN(S(=O)(=O)c4cc(F)ccc4C)CC3)C2)c1 (some centres unmarked) [Compound 204]

>  <pIC50>
7.92

$$$$
>  <compound>
CNS(=O)(=O)c1cccc(OC[C@@H](O)CNC2COC3(CCN(S(=O)(=O)c4c(Cl)ccc5nonc45)CC3)C2)c1 (some centres unmarked) [Compound 262]

>  <pIC50>
7.27

$$$$
>  <compound>
CNS(=O)(=O)c1cccc(OC[C@@H](O)CNC2COC3(CCN(S(=O)(=O)c4ccc5cn[nH]c5c4)CC3)C2)c1 (some centres unmarked) [Compound 328]

>  <pIC50>
7.43

$$$$
>  <compound>
CCn1cc(S(=O)(=O)N2CCC3(CC2)C[C@@H](NC[C@H](O)COc2cccc(S(N)(=O)=O)c2)CO3)c(=O)c2ccc(C)cc21 [Compound 557]

>  <pIC50>
7.08

$$$$
>  <compound>
Cc1ccc2c(O)c(S(=O)(=O)N3CCC4(CC3)C[C@@H](NC[C@H](O)COc3cccc(S(N)(=O)=O)c3)CO4)cnc2c1 [Compound 542]

>  <pIC50>
7.81

$$$$
>  <compound>
CNS(=O)(=O)c1cccc(OC[C@@H](O)CNC2COC3(CCN(S(=O)(=O)c4cc(C#N)ccc4C)CC3)C2)c1 (some centres unmarked) [Compound 217]

>  <pIC50>
7.45

$$$$
>  <compound>
CNS(=O)(=O)c1cccc(OC[C@@H](O)CNC2COC3(CCN(S(=O)(=O)c4cccnc4N(C)C)CC3)C2)c1 (some centres unmarked) [Compound 441]

>  <pIC50>
7.09

$$$$
>  <compound>
O=S(=O)(NCC(F)F)c1cccc(OC[C@@H](O)CNC2COC3(CCN(S(=O)(=O)c4ccc5ccccc5c4)CC3)C2)c1 (some centres unmarked) [Compound 9]

>  <pIC50>
6.97

$$$$
>  <compound>
CNS(=O)(=O)c1cccc(OC[C@@H](O)CNC2COC3(CCN(S(=O)(=O)c4cccc5nsnc45)CC3)C2)c1 (some centres unmarked) [Compound 128]

>  <pIC50>
7.94

$$$$
>  <compound>
CCC(C)c1ccc(S(=O)(=O)N2CCC3(CC2)CC(NC[C@H](O)COc2cccc(S(=O)(=O)NC)c2)CO3)cc1 (some centres unmarked) [Compound 22]

>  <pIC50>
7.82

$$$$
>  <compound>
C[C@@H](O)CNS(=O)(=O)c1cccc(OC[C@@H](O)CN[C@H]2COC3(CCN(S(=O)(=O)c4cnc5c(c4)N(C)CCO5)CC3)C2)c1 [Compound 436]

>  <pIC50>
6.44

$$$$
>  <compound>
CNS(=O)(=O)c1cccc(OC[C@@H](O)CNC2COC3(CCN(S(=O)(=O)c4ccccc4C#N)CC3)C2)c1 (some centres unmarked) [Compound 39]

>  <pIC50>
7.51

$$$$
>  <compound>
CN1CCOc2ncc(S(=O)(=O)N3CCC4(CC3)C[C@@H](NC[C@H](O)COc3cccc(S(=O)(=O)NCCF)c3)CO4)cc21 [Compound 457]

>  <pIC50>
7.53

$$$$
>  <compound>
CNS(=O)(=O)c1cccc(OC[C@@H](O)CNC2COC3(CCN(S(=O)(=O)c4cc(Br)ccc4OCCN4CCCC4)CC3)C2)c1 (some centres unmarked) [Compound 412]

>  <pIC50>
7.30

$$$$
>  <compound>
CNS(=O)(=O)c1cccc(OC[C@@H](O)CNC2COC3(CCN(S(=O)(=O)c4cc(Br)ccc4OC)CC3)C2)c1 (some centres unmarked) [Compound 220]

>  <pIC50>
7.72

$$$$
>  <compound>
Cc1c(S(=O)(=O)N2CCC3(CC2)CC(NC[C@H](O)COc2cccc(S(=O)(=O)NCCCN(C)C)c2)CO3)cnn1-c1ccccc1 (some centres unmarked) [Compound 313]

>  <pIC50>
5.40

$$$$
>  <compound>
CCn1cc(S(=O)(=O)N2CCC3(CC2)C[C@@H](NC[C@H](O)COc2cccc(S(=O)(=O)NC)c2)CO3)c(=O)c2cc(F)ccc21 [Compound 536]

>  <pIC50>
6.78

$$$$
>  <compound>
CNS(=O)(=O)c1cccc(OC[C@@H](O)CNC2COC3(CCN(S(=O)(=O)c4cccc(-c5ccc(C)nc5)c4)CC3)C2)c1 (some centres unmarked) [Compound 111]

>  <pIC50>
7.58

$$$$
>  <compound>
CN(C)CCCNS(=O)(=O)c1cccc(OC[C@@H](O)CNC2COC3(CCN(S(=O)(=O)c4ccc(-c5ccccc5)s4)CC3)C2)c1 (some centres unmarked) [Compound 315]

>  <pIC50>
5.97

$$$$
>  <compound>
CNS(=O)(=O)c1cccc(OC[C@@H](O)CNC2COC3(CCN(S(=O)(=O)c4cc(Cl)ccc4OC)CC3)C2)c1 (some centres unmarked) [Compound 148]

>  <pIC50>
7.96

$$$$
>  <compound>
CNS(=O)(=O)c1cccc(OC[C@@H](O)CN[C@H]2COC3(CCN(S(=O)(=O)c4ccc[n+]([O-])c4)CC3)C2)c1 [Compound 496]

>  <pIC50>
6.27

$$$$
>  <compound>
CNS(=O)(=O)c1cccc(OC[C@@H](O)CNC2COC3(CCN(c4cc(Cl)ccn4)CC3)C2)c1 (some centres unmarked) [Compound 433]

>  <pIC50>
6.45

$$$$
>  <compound>
CNS(=O)(=O)c1cccc(OC[C@@H](O)CNC2COC3(CCN(S(=O)(=O)c4cccc(-c5ccc(CNC(C)C)cc5)c4)CC3)C2)c1 (some centres unmarked) [Compound 303]

>  <pIC50>
7.49

$$$$
>  <compound>
CNS(=O)(=O)c1cccc(OC[C@@H](O)CNC2COC3(CCN(S(=O)(=O)c4cccc(-c5cnn(CC(C)C)c5)c4)CC3)C2)c1 (some centres unmarked) [Compound 81]

>  <pIC50>
7.78

$$$$
>  <compound>
CNS(=O)(=O)c1cccc(OC[C@@H](O)CNC2COC3(CCN(S(=O)(=O)c4cccc(C#N)c4)CC3)C2)c1 (some centres unmarked) [Compound 32]

>  <pIC50>
7.78

$$$$
